// provenance: ChEMBL document CHEMBL3301361

- methodNotes: in vitro
- conditionContext: SD, HW or BN, rat, plasma
reportedMetric: fraction unbound at 5 h
Number only, no unit.

Kindly indicate its recorded fraction unbound at 5 h. Item: CC(C)NCC(O)COc1ccc(COCCOC(C)C)cc1 (centres undefined) [BISOPROLOL]
0.768

Respond only with fraction unbound at 5 h recorded for N#Cc1ccc2ccc(=O)n(CCN3CC[C@@H](NCc4cc5c(cn4)OCCO5)[C@@H](O)C3)c2c1
0.471

Let me know recorded fraction unbound at 5 h for Cc1cccc(CN2CCC3(CC2)CCN(C(=O)c2ccccc2)CC3)c1 , thanks.
0.46

Return fraction unbound at 5 h (reported value) for this compound: COc1ccc([C@]2(C#N)CC[C@@H](C(=O)O)CC2)cc1OC1CCCC1 [CILOMILAST]
0.0606

Report fraction unbound at 5 h for CN(c1ccccc1)S(=O)(=O)c1ccc(NC(=O)C(C)(O)C(F)(F)F)cc1 (centres undefined)
0.024

Fill in fraction unbound at 5 h for record O=C(N[C@H](Cc1ccc(Cl)cc1)C(=O)N1CCC(Cn2cncn2)(C2CCCCC2)CC1)[C@H]1Cc2ccccc2CN1
0.0052

For the compound COc1ccccc1CCNCc1ccc(CCNC[C@H](O)c2ccc(O)c3[nH]c(=O)sc23)cc1 , give its reported fraction unbound at 5 h.
0.0606

Quick one: give measured fraction unbound at 5 h for CNC1(c2ccccc2Cl)CCCCC1=O (centres undefined) [KETAMINE]
0.552

Give reported fraction unbound at 5 h value for COc1ccc2c(c1)C(=O)C(=O)N2CC1COc2ccccc2O1 (centres undefined)
0.0059

----------
- methodNotes: physchem
- conditionContext: pH 7.4 buffer
Assign solubility thermodynamic to each entry below.
The reply should be a number in µM, with the unit left off.

Assign solubility thermodynamic to the following record: O=C(c1ccc(F)cc1)C1CCN(C(=O)c2ccc(Cl)c(Cl)c2)CC1
0.8

Please list solubility thermodynamic recorded for the molecule Cn1c(=O)c2[nH]c(-c3cccnc3)nc2n(C)c1=O
219

Give the measured solubility thermodynamic for CC(C)Cn1cnc(-c2ccccc2)c1-c1nc2c(N)ncnc2s1
70.8

Consider the molecule COc1cc2ncnc(Nc3cccc(Cl)c3F)c2cc1CN(C)C1(C(N)=O)CCN(C)CC1 . State its measured solubility thermodynamic.
282

Please indicate solubility thermodynamic recorded for Cc1cc(C)cc(-c2[nH]c3ccc(C(C)(C)C(=O)N4C5CCC4CC5)cc3c2[C@H](C)CNCCc2ccncc2)c1
148

Indicate its recorded solubility thermodynamic; the molecule in question is CC(C)(C)OC(=O)N1CCN(c2cnc(OCc3ccc(S(C)(=O)=O)cc3)cn2)CC1
4.7

Read the entry COC(=O)C1=C(C)NC(C)=C(C(=O)OCC(C)C)C1c1ccccc1[N+](=O)[O-] (stereo unspecified) and write its reported solubility thermodynamic.
2.2

Give a short answer stating reported solubility thermodynamic for CNC(=O)Cc1ccc2c(=O)cc(-c3cccnc3)[nH]c2c1 .
457

Look up and state reported solubility thermodynamic for Cc1ccc(F)c(Nc2ccnc(Nc3ccc(S(N)(=O)=O)cc3)n2)c1
4.4

For the molecule Cc1cc(OC2CCN(CC3CCN([C@@](C)(Cc4ccc(F)cc4)C(=O)O)CC3)CC2)ccc1Cl , give its reported solubility thermodynamic.
204

Provide measured solubility thermodynamic value, entry: NC(=O)c1sc(-c2ccsc2)cc1NS(=O)(=O)c1ccc(C(F)(F)F)cc1
4.8

Output solubility thermodynamic of COc1ccc(Nc2nccc(-c3cnc(C)n3C(C)C)n2)cc1
209

For the molecule CS(=O)(=O)N1CCc2c(-c3cnc(N)nc3)nc(N3CCOCC3)nc21 , give its measured solubility thermodynamic value.
1.7

Give me measured solubility thermodynamic, please, for this molecule: O=S(=O)(Nc1ccncc1)c1ccccc1
794

Consider the molecule CC(C)Cc1nc(-c2ccccc2)c(-c2ccc(CN3CCC(n4c(=O)[nH]c5ccccc54)CC3)cc2)nc1O . State its measured solubility thermodynamic.
1.6

Read off the recorded solubility thermodynamic for Cc1ccc(Oc2ccnc(Nc3ccc(S(N)(=O)=O)cc3)c2)c(C)n1
4.2

For the molecule c1ccc(Nc2cc(Nc3ccccc3)[nH]n2)cc1 , give its reported solubility thermodynamic.
12.6

Fill in reported solubility thermodynamic for this entry: Cc1ccc(Nc2nc(C)nc3c2oc2ccccc23)cc1
0.5

Answer with the recorded solubility thermodynamic of COc1cc(N2CC3CNCC(C2)O3)ccc1Nc1ncc(Cl)c(-c2cnc3ccccn23)n1 only.
25.1

Recall and state the measured solubility thermodynamic for O=c1[nH]nc(Cc2ccccc2)c2ccccc12 .
24.5

Return solubility thermodynamic for the following molecule: O=C(Cc1cc(Nc2ncnc3cc(OCCCN4CCC[C@@H]4CO)ccc23)[nH]n1)Nc1cccc(F)c1
102

Tell me measured solubility thermodynamic for CN1CCC(Oc2cccc3ncnc(Nc4ccc(OCc5ccccn5)c(Cl)c4)c23)CC1 please.
1.5

Annotate the molecule Cc1ccc(C(=O)N2CCC(C(=O)c3ccc(F)cc3)CC2)cc1 with its measured solubility thermodynamic.
20.4

Please report solubility thermodynamic for the following molecule: CN(C)C(=O)[C@H](Cc1ccccc1)NC(=O)c1cc2cc(Cl)sc2[nH]1
1.5

Specify measured solubility thermodynamic for COc1ccc(-c2csc(N(CCCN3CCOCC3)C(=O)c3ccco3)n2)cc1 .
1.1

Specify solubility thermodynamic for CCn1c(=O)ccc2cnc(Nc3ccc(OC)c(OC)c3)nc21 and stop.
1.6

Give a short answer stating reported solubility thermodynamic for COc1cc2ncnc(Nc3ccc(C)c(O)c3)c2cc1OC .
4.4

Read off the recorded solubility thermodynamic for O=C(CCN1CCCCC1)Nc1ccc(-c2cccn3c(=O)cc(N4CCOCC4)nc23)c2sc3ccccc3c12
16.6

Specify measured solubility thermodynamic for CC1CN(C(=O)c2ccccc2)c2ccccc2NC1=O (stereo unspecified) .
1200

Quick one: give measured solubility thermodynamic for COc1ccc(Cl)cc1C(=O)NCCc1ccc(S(=O)(=O)NC(=O)NC2CCCCC2)cc1 [GLYBURIDE]
10.5

Report solubility thermodynamic, nothing else, for this molecule: COCCOC(=O)C1=C(C)NC(C)=C(C(=O)OC(C)C)C1c1cccc([N+](=O)[O-])c1 (stereo unspecified)
3.1

Using the record for CS(=O)(=O)c1cccc(Nc2nccc(Nc3cccc4[nH]ncc34)n2)c1 , state its measured solubility thermodynamic.
6.8

Give solubility thermodynamic for Cc1c(CCC(=O)O)c[nH]c1/C=C1\C(=O)Nc2ccccc21
209

Return solubility thermodynamic for the following molecule: Oc1ncnc2c1cnn2Cc1ccccc1
158

Return reported solubility thermodynamic. Input molecule: Cc1oc(-c2ccccc2)nc1CCOc1ccc(C[C@H](Nc2ccccc2C(=O)c2ccccc2)C(=O)O)cc1
35.5

Tell us which solubility thermodynamic value is on record for CC(C)N1CCO[C@@H](CN2CCN(C(=O)Nc3ccc(Cl)c(Cl)c3)CC2)C1
1120

Write down solubility thermodynamic measured for item Cc1ccnc2nc(C(=O)Nc3nccs3)nn12
339

Entry COC[C@H](C)Oc1cc(Oc2cc(F)cc(F)c2)cc(C(=O)Nc2ccc(C(=O)O)cn2)c1 needs its solubility thermodynamic filled in; supply it.
832

Item COc1ccc(C(=O)CS(=O)(=O)c2ccccc2)cc1 : provide solubility thermodynamic
53.7

Report solubility thermodynamic for Nc1n[nH]c(S(=O)(=O)CCCc2ccccc2)n1
575

Please report the measured solubility thermodynamic for Cc1cc2n[nH]c(=O)n2c2cc(-c3ccc([S+](C)[O-])cc3)ccc12 (stereo unspecified)
1.9
